- System Name: T1, human Ang-2 V345M (human, UniProt O15123 19-496)
- T1 sequence: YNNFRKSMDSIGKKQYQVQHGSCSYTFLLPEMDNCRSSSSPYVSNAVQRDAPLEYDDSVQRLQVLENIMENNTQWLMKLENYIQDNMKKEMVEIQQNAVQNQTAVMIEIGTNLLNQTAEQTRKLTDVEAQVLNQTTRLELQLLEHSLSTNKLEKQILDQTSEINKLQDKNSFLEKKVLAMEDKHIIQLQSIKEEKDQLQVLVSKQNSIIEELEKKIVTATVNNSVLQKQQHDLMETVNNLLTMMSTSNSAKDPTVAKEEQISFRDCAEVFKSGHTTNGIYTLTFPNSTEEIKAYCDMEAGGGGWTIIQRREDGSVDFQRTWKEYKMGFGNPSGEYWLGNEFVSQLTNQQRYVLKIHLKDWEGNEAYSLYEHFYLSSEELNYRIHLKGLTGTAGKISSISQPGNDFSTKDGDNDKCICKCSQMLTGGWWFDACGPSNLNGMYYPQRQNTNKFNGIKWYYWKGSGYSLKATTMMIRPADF
- Experiment Description: ELISA
Assay Endpoint: % of binding to human Ang-2 (%)

INSERT INTO results (binder, unit_descriptor, readout_number) VALUES
  ('mAb 3.19.3 (antibody, V domains shown, Human hybridoma IgG (XenoMouse); also called x3.19) VH: QVQLVESGGGVVQPGRSLRLSCAASGFTFTNYGMHWGRQAPGKGLEWVAVISHDGNNKYYVDSVKGRFTISRDNSKNTLYLQMNSLRAEDTAVYYCAREGIDFWSGLNWFDPWGQGTLVTVSS VL: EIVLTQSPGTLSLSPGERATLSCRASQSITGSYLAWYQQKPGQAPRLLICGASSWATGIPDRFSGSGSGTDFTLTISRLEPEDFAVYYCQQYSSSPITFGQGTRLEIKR', '%', 100),
  ('mAb 6.3.1 (antibody, V domains shown, Human hybridoma IgG (XenoMouse); also called x6.3) VH: QVQLVQSGAEVKKPGASVKVSCKASGYTFTGYFMHWVPQAPGQGLEWMGWINPNSGGTNYAQNFQGRVTMTRDTSISTAYMELSRLRSDDTPVYYCARDPWQNWNSYFDYWGQGTLVTVSS VL: DIQMTQSPSSLSASVGDRVTITCRASQSIRSYLNWYQQKPGKAPKVLIYAASSLQSGVPSRFSGSGSGTDFTLTISSLQPEDFATYYCQQSYSTLCSFGQGTKLEIKR', '%', 100),
  ('mAb 5.62.1 (antibody, V domains shown, Human hybridoma IgG (XenoMouse); also called x5.62) VH: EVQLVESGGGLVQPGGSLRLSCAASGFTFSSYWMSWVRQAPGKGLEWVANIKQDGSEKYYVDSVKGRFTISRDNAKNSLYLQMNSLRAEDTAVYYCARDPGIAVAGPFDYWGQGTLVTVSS VL: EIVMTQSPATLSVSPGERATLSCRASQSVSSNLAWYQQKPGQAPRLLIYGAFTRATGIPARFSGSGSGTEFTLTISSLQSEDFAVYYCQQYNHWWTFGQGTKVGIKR', '%', 100);
